Attribution: patent US8536221B2

biological target: UniProtKB P36544; test: Two-electrode voltage-clamp in Xenopus laevis oocytes, potentiation of ACh-evoked α7 currents; settings: potentiating 0.1 mM ACh-evoked α7 currents in oocytes
Sequence (P36544 23-502): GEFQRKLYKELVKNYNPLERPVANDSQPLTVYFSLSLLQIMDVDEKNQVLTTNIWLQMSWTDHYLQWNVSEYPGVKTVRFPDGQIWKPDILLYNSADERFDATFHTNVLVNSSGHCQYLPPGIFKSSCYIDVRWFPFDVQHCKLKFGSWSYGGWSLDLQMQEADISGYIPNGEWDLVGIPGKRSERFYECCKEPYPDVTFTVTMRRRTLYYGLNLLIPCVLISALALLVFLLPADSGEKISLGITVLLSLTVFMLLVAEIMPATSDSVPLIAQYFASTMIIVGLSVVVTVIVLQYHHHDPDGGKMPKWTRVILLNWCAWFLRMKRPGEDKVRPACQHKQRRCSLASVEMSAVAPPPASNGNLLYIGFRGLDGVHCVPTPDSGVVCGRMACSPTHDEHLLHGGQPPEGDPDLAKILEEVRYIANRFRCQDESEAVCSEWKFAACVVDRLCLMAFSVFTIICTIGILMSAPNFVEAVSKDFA
Below is a list of entries, each paired with its recorded pEC50 value.
// pEC50: -log10(molar conc.)

{"compound": "Cn1ccc2cc(CNC(=O)c3ccc(SC(F)(F)F)cc3)ccc21 [Example 10]", "reported.result": 6.68}

Enquiry: Would you please give the reported pEC50 of Cn1ccc2ccc(CNC(=O)c3ccc(SC(F)(F)F)cc3)cc21 [Example 12] with UniProtKB P36544?
Return: 5.96
